Cited source for all entries: ChEMBL document CHEMBL4483862

system: Plasmodium berghei; experiment: Luciferase/luciferin-expressing antifolate-resistant parasites were used to infect a culture of HepG2 cells that were pre-incubated with compounds. Infected hepatocytes emit light due to the luciferase reaction. Assay results are presented as the percent inhibition of light emission compared to control. […]; format: functional; details: sporozoite, HEPG2TOX_HILL_SLOPE 8.05, HEPG2TOX_R_SQUARED 0.112, PBLUC_HILL_SLOPE 0.841, PBLUC_R_SQUARED 0.28, read-out: LUCIFERASE INFECTION ASSAY - IC50
pIC50: −log10 of the molar value.
readoutLabel: pIC50

Exercise: Observed pIC50 on Plasmodium berghei for Cc1ccc(S(=O)(=O)Oc2ccccc2/C=N/N=C2\NC(=O)CS2)cc1Cl , please.
Key: < 5.00

----------
tested on: Plasmodium berghei; assay: Luciferase/luciferin-expressing antifolate-resistant parasites were used to infect a culture of HepG2 cells that were pre-incubated with compounds. Infected hepatocytes emit light due to the luciferase reaction. Assay results are presented as the percent inhibition of light emission compared to control. […]; format: functional; details: sporozoite, HEPG2TOX_HILL_SLOPE 8.85, HEPG2TOX_R_SQUARED 0.0358, read-out: LUCIFERASE INFECTION ASSAY - IC50
readoutLabel: IC50

Exercise: Observed IC50 on Plasmodium berghei for Cc1ccccc1-c1noc(-c2cc(-c3cccs3)[nH]n2)n1 , please.
Key: > 10 µM

----------
Form field: IC90 (one value per entry).
system: Plasmodium berghei; test: Luciferase/luciferin-expressing antifolate-resistant parasites were used to infect a culture of HepG2 cells that were pre-incubated with compounds. Infected hepatocytes emit light due to the luciferase reaction. Assay results are presented as the percent inhibition of light emission compared to control. […]; assay type: functional; conditions: sporozoite, read-out: LUCIFERASE INFECTION ASSAY - IC90

Here are 2 compounds together with their reported answers.
CC1CCc2c(sc3nc(CN4CCOCC4)nc(N4CCN(S(=O)(=O)/C=C/c5ccccc5)CC4)c23)C1 (stereo not given) ... > 10 µM
CC(C)Cn1c(SC2CCOC2=O)nc2cc(Cl)ccc2c1=O (stereo not given) ... > 10 µM

Exercise: Query: IC90; subject: CN(C)C(=O)Oc1ccc(Br)cc1C(=O)Nc1ccc(F)c(Cl)c1
Key: > 7.94 µM

Exercise: Query: IC90; subject: COc1ccccc1N(Cc1cc2ccc(C)cc2[nH]c1=O)S(=O)(=O)c1ccccc1
Key: > 10 µM

Exercise: Query: IC90; subject: N#CC(Nc1cc(C(F)(F)F)cc(C(F)(F)F)c1)c1ccccc1 (stereo not given)
Key: > 9.59 µM

----------
system: Plasmodium berghei; experiment: Luciferase/luciferin-expressing antifolate-resistant parasites were used to infect a culture of HepG2 cells that were pre-incubated with compounds. Infected hepatocytes emit light due to the luciferase reaction. Assay results are presented as the percent inhibition of light emission compared to control. […]; format: functional; settings: sporozoite, PBLUC_HILL_SLOPE 13.6, PBLUC_R_SQUARED 0.311, read-out: LUCIFERASE INFECTION ASSAY - IC50
readoutLabel: IC50 (µM)
Give the quantity in µM, number only.

Exercise: Query: IC50; subject: COc1ccccc1C(=O)Nc1nonc1-c1ccc2c(c1)CCCC2
Key: 9.15

----------
tested on: Plasmodium berghei; assay: Luciferase/luciferin-expressing antifolate-resistant parasites were used to infect a culture of HepG2 cells that were pre-incubated with compounds. Infected hepatocytes emit light due to the luciferase reaction. Assay results are presented as the percent inhibition of light emission compared to control. […]; format: functional; conditions: sporozoite, FFLUC_HILL_SLOPE 1.69, FFLUC_R_SQUARED 0.223, read-out: LUCIFERASE INFECTION ASSAY - IC50
pIC50: −log10 of the molar value.
readoutLabel: pIC50

Exercise: Query: pIC50; subject: Cc1cc(NC(=O)COC(=O)CCCOc2ccc(Cl)cc2C)no1
Key: < 5.00

----------
test system: Plasmodium berghei; test: Luciferase/luciferin-expressing antifolate-resistant parasites were used to infect a culture of HepG2 cells that were pre-incubated with compounds. Infected hepatocytes emit light due to the luciferase reaction. Assay results are presented as the percent inhibition of light emission compared to control. […]; assay type: functional; settings: sporozoite, FFLUC_HILL_SLOPE 2.91, FFLUC_R_SQUARED 0.779, PBLUC_HILL_SLOPE 12.4, PBLUC_R_SQUARED 0.288, read-out: LUCIFERASE INFECTION ASSAY - IC50
readoutLabel: IC50

Exercise: Query: IC50; subject: CCOC(=O)c1c(C)noc1/C(C)=N/Nc1cc(C(F)(F)F)cc(C(F)(F)F)c1
Key: > 7.8 µM

----------
system: Plasmodium berghei; test: Luciferase/luciferin-expressing antifolate-resistant parasites were used to infect a culture of HepG2 cells that were pre-incubated with compounds. Infected hepatocytes emit light due to the luciferase reaction. Assay results are presented as the percent inhibition of light emission compared to control. […]; assay type: functional; settings: sporozoite, read-out: LUCIFERASE INFECTION ASSAY - IC90
Form field: IC90 (one value per entry).

CC(=O)N1CCC(C(=O)Nc2cc(C(F)(F)F)ccc2NC2CCCCC2)CC1 ... > 10 µM
O=C1C=C/C(=N\Nc2ccc3ncsc3c2)c2cccnc21 ... > 10 µM
Clc1ccccc1-c1cn2c(-c3ccncc3)cnc2cn1 ... > 10.8 µM
Brc1ccc(OCc2ccccc2)c(CNCc2ccccn2)c1 ... 6.94 µM
COc1ccc(/C=C/C(=O)c2cc(F)c(Cl)cc2Cl)c(OC)c1OC ... > 10 µM

Exercise: Query: IC90; subject: Cc1ccc2nc(NC(=O)c3ccccc3)c(C(=O)NC3CCCC3)n2c1
Key: 3.58 µM

Exercise: Query: IC90; subject: CCOc1cc2c(cc1NC(=O)CCCCCn1c(=S)[nH]c3ccccc3c1=O)OC(C)C2 (stereo unspecified)
Key: > 10 µM

Exercise: Query: IC90; subject: CC(=O)Nc1cc(C(=O)CSc2ncnc3sccc23)ccc1O
Key: > 10 µM

Exercise: Query: IC90; subject: Cc1cc(C(=O)Nc2ccncc2Cl)c(C)s1
Key: > 10 µM

Exercise: Query: IC90; subject: O=C(/C=C/c1cccnc1)c1ccc(S(=O)(=O)NCc2ccccc2Cl)cc1
Key: 5.93 µM

Exercise: Query: IC90; subject: Cc1ccc(C(C)C)c(OCC(=O)Nc2ccc(I)c(C)n2)c1
Key: > 10 µM

----------
system: Plasmodium berghei; experiment: Luciferase/luciferin-expressing antifolate-resistant parasites were used to infect a culture of HepG2 cells that were pre-incubated with compounds. Infected hepatocytes emit light due to the luciferase reaction. Assay results are presented as the percent inhibition of light emission compared to control. […]; format: functional; settings: sporozoite, HEPG2TOX_HILL_SLOPE 1.42, HEPG2TOX_R_SQUARED 0.962, PBLUC_HILL_SLOPE 3.55, PBLUC_R_SQUARED 0.0785, read-out: LUCIFERASE INFECTION ASSAY - IC50
readoutLabel: IC50 (µM)
Give the quantity in µM, number only.

Exercise: Observed IC50 on Plasmodium berghei for CC/C(=N\NC(=O)COc1cccc(Br)c1)c1cc(F)ccc1O , please.
Key: 5.12

----------
test system: Plasmodium berghei; assay: Luciferase/luciferin-expressing antifolate-resistant parasites were used to infect a culture of HepG2 cells that were pre-incubated with compounds. Infected hepatocytes emit light due to the luciferase reaction. Assay results are presented as the percent inhibition of light emission compared to control. […]; type: functional; details: sporozoite, PBLUC_HILL_SLOPE 0.862, PBLUC_R_SQUARED 0.121, read-out: LUCIFERASE INFECTION ASSAY - IC50
readoutLabel: pIC50
Notebook: values listed as pIC50 are -log10 of the concentration (mol/L).

Exercise: Observed pIC50 on Plasmodium berghei for CN(Cc1nc2ccccc2s1)Cn1cnc2c(=O)n(C)c(=O)n(C)c21 , please.
Key: 5.01

----------
test system: Plasmodium berghei; experiment: Luciferase/luciferin-expressing antifolate-resistant parasites were used to infect a culture of HepG2 cells that were pre-incubated with compounds. Infected hepatocytes emit light due to the luciferase reaction. Assay results are presented as the percent inhibition of light emission compared to control. […]; assay type: functional; conditions: sporozoite, PBLUC_HILL_SLOPE 4.35, PBLUC_R_SQUARED 0.48, read-out: LUCIFERASE INFECTION ASSAY - IC50
readoutLabel: pIC50
Notebook: values listed as pIC50 are -log10 of the concentration (mol/L).

Exercise: Query: pIC50; subject: CC(C)N(CCNC(=O)c1ccc(CSc2nc3ccccc3s2)cc1)C(C)C
Key: 5.26

----------
tested on: Plasmodium berghei; assay: Luciferase/luciferin-expressing antifolate-resistant parasites were used to infect a culture of HepG2 cells that were pre-incubated with compounds. Infected hepatocytes emit light due to the luciferase reaction. Assay results are presented as the percent inhibition of light emission compared to control. […]; type: functional; conditions: sporozoite, PBLUC_HILL_SLOPE 9.23, PBLUC_R_SQUARED 0.508, read-out: LUCIFERASE INFECTION ASSAY - IC50
readoutLabel: IC50

Exercise: Query: IC50; subject: CC(C)(C)c1csc(NC(=O)C2CCCN2S(=O)(=O)c2ccc(Br)s2)n1 (stereo unspecified)
Key: 9.84 µM
